// provenance: ChEMBL document CHEMBL5338747

Test: Tmax in Sprague-Dawley rat at 1 mg/kg, iv by LC-MS analysis
Assay type: ADME, organism-based
Settings: in vivo
PARAMETER: Tmax (min)
One number for each entry, in min.

*Q* Identify measured Tmax corresponding to "C=C[C@]1(C)C[C@@H](OC(=O)CSc2nc(-c3cc[n+](Cc4ccc(C)cc4)cc3)cs2)[C@]2(C)[C@H](C)CC[C@]3(CCC(=O)[C@H]32)[C@@H](C)[C@@H]1O.[Br-]"
*A* 1.8

* * *

Tested on: Staphylococcus aureus
Assay: Antibacterial activity against methicillin-resistant Staphylococcus aureus 206 assessed as inhibition of bacterial growth incubated for 24 hrs by broth microdilution method
Format: functional
PARAMETER: MIC (µg/mL)
Numbers only, in µg/mL.

Some entries whose results are on file:
Br.C=C[C@]1(C)C[C@@H](OC(=O)CSc2nc(-c3cc[n+](Cc4ccc([N+](=O)[O-])cc4)cc3)cs2)[C@]2(C)[C@H](C)CC[C@]3(CCC(=O)[C@H]32)[C@@H](C)[C@@H]1O; 16
C=C[C@]1(C)C[C@@H](OC(=O)CSc2nc(-c3cc[n+](Cc4ccc(OC)cc4)cc3)cs2)[C@]2(C)[C@H](C)CC[C@]3(CCC(=O)[C@H]32)[C@@H](C)[C@@H]1O.[Br-]; 16
C=C[C@]1(C)C[C@@H](OC(=O)CSc2nc(-c3cc[n+](Cc4ccc(C)cc4)cc3)cs2)[C@]2(C)[C@H](C)CC[C@]3(CCC(=O)[C@H]32)[C@@H](C)[C@@H]1O.[Br-]; 2

# per-item lookup of MIC; items listed below
1. COc1c(N2C[C@@H]3CCCN[C@@H]3C2)c(F)cc2c(=O)c(C(=O)O)cn(C3CC3)c12
2. C=C[C@]1(C)C[C@@H](OC(=O)CS[C@@H]2C[C@H]3CC[C@@H](C2)N3C)[C@]2(C)[C@H](C)CC[C@]3(CCC(=O)[C@H]32)[C@@H](C)[C@@H]1O

*A*
1: 4; 2: 128

* * *

I'd appreciate it if you could supply solubility at 12 h values for the items below.
Assay: Aqueous solubility of the compound in physiological saline measured after 12 hrs by UV spectrophotometric analysis
Type: physicochemical
One number for each entry, in µM.

Consider the worked cases shown below.
C=C[C@]1(C)C[C@@H](OC(=O)CSC(C)(C)CNC(=O)[C@H](N)C(C)C)[C@]2(C)[C@H](C)CC[C@]3(CCC(=O)[C@H]32)[C@@H](C)[C@@H]1O; 341
C=C[C@]1(C)C[C@@H](OC(=O)CSc2nc(-c3cc[n+](CCCCCCCCCCCCCCCC)cc3)cs2)[C@]2(C)[C@H](C)CC[C@]3(CCC(=O)[C@H]32)[C@@H](C)[C@@H]1O.[Br-]; 187

Batch request: solubility at 12 h per item, same order as input.
1. Br.C=C[C@]1(C)C[C@@H](OC(=O)CSc2nc(-c3cc[n+](Cc4ccc([N+](=O)[O-])o4)cc3)cs2)[C@]2(C)[C@H](C)CC[C@]3(CCC(=O)[C@H]32)[C@@H](C)[C@@H]1O
2. C=C[C@]1(C)C[C@@H](OC(=O)CSc2nc(-c3cc[n+](Cc4ccc(-c5ccccc5)cc4)cc3)cs2)[C@]2(C)[C@H](C)CC[C@]3(CCC(=O)[C@H]32)[C@@H](C)[C@@H]1O.[Br-]

*A*
1650
271

Hi there! I need solubility at 12 h for each item below, if you can.
1. C=C[C@]1(C)C[C@@H](OC(=O)CSc2nc(-c3cc[n+](Cc4ccc(Cl)cc4)cc3)cs2)[C@]2(C)[C@H](C)CC[C@]3(CCC(=O)[C@H]32)[C@@H](C)[C@@H]1O.[Br-]
2. Br.C=C[C@]1(C)C[C@@H](OC(=O)CSc2nc(-c3cc[n+](Cc4ccc([N+](=O)[O-])cc4)cc3)cs2)[C@]2(C)[C@H](C)CC[C@]3(CCC(=O)[C@H]32)[C@@H](C)[C@@H]1O

*A*
649
754

Hey, can you go through the list below and give me solubility at 12 h for every item?
1. C=C[C@]1(C)C[C@@H](OC(=O)CSc2nc(-c3cc[n+](Cc4ccccc4)cc3)cs2)[C@]2(C)[C@H](C)CC[C@]3(CCC(=O)[C@H]32)[C@@H](C)[C@@H]1O.[Br-]
2. C=C[C@]1(C)C[C@@H](OC(=O)CSc2nc(-c3cc[n+](Cc4cc(F)cc(F)c4)cc3)cs2)[C@]2(C)[C@H](C)CC[C@]3(CCC(=O)[C@H]32)[C@@H](C)[C@@H]1O.[Br-]
3. C=C[C@]1(C)C[C@@H](OC(=O)CSc2nc(-c3cc[n+](CCCC)cc3)cs2)[C@]2(C)[C@H](C)CC[C@]3(CCC(=O)[C@H]32)[C@@H](C)[C@@H]1O.[Br-]
4. C=C[C@]1(C)C[C@@H](OC(=O)CSc2nc(-c3cc[n+](CCCCCCCCCC)cc3)cs2)[C@]2(C)[C@H](C)CC[C@]3(CCC(=O)[C@H]32)[C@@H](C)[C@@H]1O.[Br-]
5. C=C[C@]1(C)C[C@@H](OC(=O)CSc2nc(-c3cc[n+](Cc4ccc(C)cc4)cc3)cs2)[C@]2(C)[C@H](C)CC[C@]3(CCC(=O)[C@H]32)[C@@H](C)[C@@H]1O.[Br-]
6. C=C[C@]1(C)C[C@@H](OC(=O)CSc2nc(-c3cc[n+](Cc4ccc(C(F)(F)F)cc4)cc3)cs2)[C@]2(C)[C@H](C)CC[C@]3(CCC(=O)[C@H]32)[C@@H](C)[C@@H]1O.[Br-]

*A*
[871, 803, 672, 203, 862, 899]

# per-item lookup of solubility at 12 h; items listed below
1. C=C[C@]1(C)C[C@@H](OC(=O)CS[C@@H]2C[C@H]3CC[C@@H](C2)N3C)[C@]2(C)[C@H](C)CC[C@]3(CCC(=O)[C@H]32)[C@@H](C)[C@@H]1O
2. C=C[C@]1(C)C[C@@H](OC(=O)CSc2nc(-c3cc[n+](Cc4ccc(Br)cc4)cc3)cs2)[C@]2(C)[C@H](C)CC[C@]3(CCC(=O)[C@H]32)[C@@H](C)[C@@H]1O.[Br-]
3. C=C[C@]1(C)C[C@@H](OC(=O)CSc2nc(-c3cc[n+](Cc4ccc(C(C)(C)C)cc4)cc3)cs2)[C@]2(C)[C@H](C)CC[C@]3(CCC(=O)[C@H]32)[C@@H](C)[C@@H]1O.[Br-]
4. C=C[C@]1(C)C[C@@H](OC(=O)CSCCN(CC)CC)[C@]2(C)[C@H](C)CC[C@]3(CCC(=O)[C@H]32)[C@@H](C)[C@@H]1O
5. C=C[C@]1(C)C[C@@H](OC(=O)CSc2nc(-c3cc[n+](Cc4ccc(OC(F)(F)F)cc4)cc3)cs2)[C@]2(C)[C@H](C)CC[C@]3(CCC(=O)[C@H]32)[C@@H](C)[C@@H]1O.[Br-]
6. C=C[C@]1(C)C[C@@H](OC(=O)CSc2nc(-c3cc[n+](Cc4ccsc4)cc3)cs2)[C@]2(C)[C@H](C)CC[C@]3(CCC(=O)[C@H]32)[C@@H](C)[C@@H]1O.[Br-]
7. C=C[C@]1(C)C[C@@H](OC(=O)CSc2nc(-c3cc[n+](Cc4cc(C)cc(C)c4)cc3)cs2)[C@]2(C)[C@H](C)CC[C@]3(CCC(=O)[C@H]32)[C@@H](C)[C@@H]1O.[Br-]

*A*
289
760
306
227
537
702
543

// each compound listed below needs its solubility at 12 h
1. C=C[C@]1(C)C[C@@H](OC(=O)CSc2nc(-c3cc[n+](Cc4ccc(C#N)cc4)cc3)cs2)[C@]2(C)[C@H](C)CC[C@]3(CCC(=O)[C@H]32)[C@@H](C)[C@@H]1O.[Br-]
2. C=C[C@]1(C)C[C@@H](OC(=O)CSc2nc(-c3cc[n+](Cc4ccc(F)cc4)cc3)cs2)[C@]2(C)[C@H](C)CC[C@]3(CCC(=O)[C@H]32)[C@@H](C)[C@@H]1O.[Br-]

*A*
[683, 807]

* * *

Tested on: Salmonella enterica
Assay: Antibacterial activity against Salmonella enterica ATCC 14028 assessed as inhibition of bacterial growth incubated for 24 hrs by broth microdilution method
Format: functional
PARAMETER: MIC (µg/mL)
Answers are plain numbers, in µg/mL.

Guide cases for MIC, answers given:
COc1c(N2C[C@@H]3CCCN[C@@H]3C2)c(F)cc2c(=O)c(C(=O)O)cn(C3CC3)c12; 2
C=C[C@]1(C)C[C@@H](OC(=O)CSc2nc(-c3cc[n+](Cc4ccc(Br)cc4)cc3)cs2)[C@]2(C)[C@H](C)CC[C@]3(CCC(=O)[C@H]32)[C@@H](C)[C@@H]1O.[Br-]; 4
C=C[C@]1(C)C[C@@H](OC(=O)CSc2nc(-c3cc[n+](Cc4cc(C)cc(C)c4)cc3)cs2)[C@]2(C)[C@H](C)CC[C@]3(CCC(=O)[C@H]32)[C@@H](C)[C@@H]1O.[Br-]; 16

Turning now to a further record.
*Q* Indicate its recorded MIC; the compound in question is "C=C[C@]1(C)C[C@@H](OC(=O)CSc2nc(-c3cc[n+](Cc4ccc(C(F)(F)F)cc4)cc3)cs2)[C@]2(C)[C@H](C)CC[C@]3(CCC(=O)[C@H]32)[C@@H](C)[C@@H]1O.[Br-]"
*A* 2
